target: Histamine H3 receptor (Homo sapiens, UniProt Q9Y5N1)
Sequence (Q9Y5N1 whole entry): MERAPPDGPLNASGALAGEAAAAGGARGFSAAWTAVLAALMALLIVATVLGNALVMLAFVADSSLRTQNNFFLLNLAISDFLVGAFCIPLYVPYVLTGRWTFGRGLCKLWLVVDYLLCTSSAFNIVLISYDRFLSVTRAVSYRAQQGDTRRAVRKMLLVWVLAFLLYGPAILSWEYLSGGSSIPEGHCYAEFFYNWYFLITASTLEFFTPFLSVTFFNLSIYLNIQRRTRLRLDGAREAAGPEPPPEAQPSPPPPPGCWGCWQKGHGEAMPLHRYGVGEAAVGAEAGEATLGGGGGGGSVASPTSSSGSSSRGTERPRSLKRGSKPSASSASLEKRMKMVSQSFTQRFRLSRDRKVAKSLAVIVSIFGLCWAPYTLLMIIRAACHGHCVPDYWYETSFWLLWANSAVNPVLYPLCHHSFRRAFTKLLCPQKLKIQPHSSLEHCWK
observation-type: Ki (nM)
Give the value, in units of nM, as a plain number.

Record CCCc1cc(C)[nH]c(=O)c1CNC(=O)c1cc(-c2ccc(N3CCN(C(C)C)CC3)nc2)cc2c1cnn2C(C)C : what is its Ki with Histamine H3 receptor (Homo sapiens, UniProt Q9Y5N1)?
300

----------
target: Histone-lysine N-methyltransferase SUV39H2 (Homo sapiens, UniProt Q9H5I1)
Sequence (Q9H5I1 whole entry): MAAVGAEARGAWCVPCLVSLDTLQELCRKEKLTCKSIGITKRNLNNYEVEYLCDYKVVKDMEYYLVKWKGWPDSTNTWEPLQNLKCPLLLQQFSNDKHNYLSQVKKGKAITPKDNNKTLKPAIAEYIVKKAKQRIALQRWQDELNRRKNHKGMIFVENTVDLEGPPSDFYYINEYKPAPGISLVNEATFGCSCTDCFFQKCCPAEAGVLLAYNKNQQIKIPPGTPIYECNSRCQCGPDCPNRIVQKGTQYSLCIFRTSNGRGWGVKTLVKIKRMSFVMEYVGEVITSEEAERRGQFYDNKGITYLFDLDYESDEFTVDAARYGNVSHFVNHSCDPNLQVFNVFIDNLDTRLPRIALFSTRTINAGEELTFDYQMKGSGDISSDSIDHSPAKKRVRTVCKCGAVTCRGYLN
pIC50: −log10 of the molar value.
observation-type: pIC50

pIC50 lookup needed for CCCc1cc(C)[nH]c(=O)c1CNC(=O)c1cc(-c2ccc(N3CCN(C(C)C)CC3)nc2)cc2c1cnn2C(C)C , thanks.
< 4.00

----------
Target: Histone-lysine N-methyltransferase EHMT1 (Homo sapiens, UniProt Q9H9B1)
Sequence (Q9H9B1 whole entry): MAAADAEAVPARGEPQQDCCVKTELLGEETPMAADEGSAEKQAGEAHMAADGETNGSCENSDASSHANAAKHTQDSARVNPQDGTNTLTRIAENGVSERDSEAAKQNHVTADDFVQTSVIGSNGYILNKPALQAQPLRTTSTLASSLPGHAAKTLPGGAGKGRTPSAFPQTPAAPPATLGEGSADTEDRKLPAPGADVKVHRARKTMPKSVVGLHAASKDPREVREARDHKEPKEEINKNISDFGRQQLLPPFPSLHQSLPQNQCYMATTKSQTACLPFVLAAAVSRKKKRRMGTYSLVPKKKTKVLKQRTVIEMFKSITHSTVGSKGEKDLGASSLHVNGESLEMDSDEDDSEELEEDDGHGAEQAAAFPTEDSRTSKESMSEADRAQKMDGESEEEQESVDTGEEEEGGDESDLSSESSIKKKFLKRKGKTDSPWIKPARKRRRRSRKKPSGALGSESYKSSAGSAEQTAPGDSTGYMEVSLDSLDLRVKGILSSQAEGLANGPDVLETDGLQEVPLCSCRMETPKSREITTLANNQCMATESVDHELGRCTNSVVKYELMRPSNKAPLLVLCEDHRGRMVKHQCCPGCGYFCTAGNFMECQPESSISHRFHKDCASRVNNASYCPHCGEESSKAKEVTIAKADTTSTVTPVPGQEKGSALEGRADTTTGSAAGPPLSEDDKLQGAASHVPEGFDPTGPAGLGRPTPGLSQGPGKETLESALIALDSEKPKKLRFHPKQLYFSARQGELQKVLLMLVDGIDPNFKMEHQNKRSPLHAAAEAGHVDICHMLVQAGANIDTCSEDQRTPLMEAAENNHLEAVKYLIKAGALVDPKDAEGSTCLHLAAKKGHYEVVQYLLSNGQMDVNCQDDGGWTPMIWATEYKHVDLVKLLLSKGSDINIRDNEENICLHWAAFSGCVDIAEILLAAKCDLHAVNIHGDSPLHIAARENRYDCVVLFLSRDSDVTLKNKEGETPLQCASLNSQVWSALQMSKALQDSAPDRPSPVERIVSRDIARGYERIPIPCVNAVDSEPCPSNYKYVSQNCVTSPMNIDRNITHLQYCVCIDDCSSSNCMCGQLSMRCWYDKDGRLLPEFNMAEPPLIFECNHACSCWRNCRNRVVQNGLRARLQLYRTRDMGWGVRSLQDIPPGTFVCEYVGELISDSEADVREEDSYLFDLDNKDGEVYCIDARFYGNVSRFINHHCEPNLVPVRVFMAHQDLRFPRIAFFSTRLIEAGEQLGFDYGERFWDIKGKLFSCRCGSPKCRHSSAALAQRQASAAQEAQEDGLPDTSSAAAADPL
observation-type: IC50

IC50 lookup needed for CCCc1cc(C)[nH]c(=O)c1CNC(=O)c1cc(-c2ccc(N3CCN(C(C)C)CC3)nc2)cc2c1cnn2C(C)C , thanks.
> 100 µM
